biological target: hGcgR (Homo sapiens, UniProt P47871); experiment: Functional cAMP activation in the presence of 0.1% casein (no HSA); assay type: cell-based; conditions: in the presence of 0.1% casein (no HSA); geometric mean; read-out: Relative cAMP EC50, hGcgR;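 also: intracellular cAMP rise after 30 min at 37 °C, read by HTRF against a cAMP standard curve, scaled from buffer only (0%) to maximal control ligand response (100%)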
Sequence (P47871 26-477): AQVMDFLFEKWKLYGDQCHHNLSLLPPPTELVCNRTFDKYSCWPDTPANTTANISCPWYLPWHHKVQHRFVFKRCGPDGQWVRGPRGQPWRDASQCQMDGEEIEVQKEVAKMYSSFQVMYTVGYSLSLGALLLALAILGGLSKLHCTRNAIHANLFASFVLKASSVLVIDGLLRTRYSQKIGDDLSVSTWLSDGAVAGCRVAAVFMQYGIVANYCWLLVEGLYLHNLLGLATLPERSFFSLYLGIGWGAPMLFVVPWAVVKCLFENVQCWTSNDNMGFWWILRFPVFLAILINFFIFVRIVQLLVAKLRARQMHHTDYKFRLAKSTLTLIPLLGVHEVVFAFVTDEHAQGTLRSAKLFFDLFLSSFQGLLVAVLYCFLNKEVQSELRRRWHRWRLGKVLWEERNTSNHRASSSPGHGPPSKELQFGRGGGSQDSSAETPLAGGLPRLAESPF
Starred links: 1 amine or outer side, 2 acyl side, 3 side chain; linkers in the order of their positions; H or OH if unused. Non-standard residues stand in square brackets, D forms with d. Groups on a side chain read outwards from the residue. No end group written: not given here. *: point of attachment. C18 diacid = O=C(O)CCCCCCCCCCCCCCCCC(=O)*; γGlu = O=C(O)[C@H](CCC(=O)[*:2])N[*:1]; αMe4Pal = C[C@](N)(Cc1ccncc1)C(=O)O; αMeY = C[C@](N)(Cc1ccc(O)cc1)C(=O)O; 4Pal = N[C@@H](Cc1ccncc1)C(=O)O; αMeL = CC(C)C[C@](C)(N)C(=O)O; Orn = NCCC[C@H](N)C(=O)O; AEEA = NCCOCCOCC(=O)O; Aib = CC(C)(N)C(=O)O
METRIC: pEC50
The value called pEC50 is obtained by taking minus log10 of the concentration in mol/L.

Response field pEC50 (hGcgR (Homo sapiens, UniProt P47871)) for item H-Y[Aib]QGTFTSD[4Pal]SQ[αMeL]LD[Orn]K([AEEA-γGlu-C18 diacid])AQ[αMe4Pal]AFIE[αMeY]LIEGGPSSGAPPPSGS-NH2 [Example 849] : 8.18

Response field pEC50 (hGcgR (Homo sapiens, UniProt P47871)) for item H-Y[Aib]QGTFTSD[4Pal]SQ[αMeL]LDKK([γGlu-γGlu-C18 diacid])AQ[Aib]AFIE[αMeY]LLEGGPSSGAPPPSGS-NH2 [Example 938] : 7.88

Response field pEC50 (hGcgR (Homo sapiens, UniProt P47871)) for item Y[Aib]QGTFTSDFSK[αMeL]LDKK([AEEA-γGlu-C18 diacid])AQ[Aib]AFIEYLLEGGPSSGAPPPSEG-NH2 [Example 48] : 8.42

* * *

molecular target: hGIPR (Homo sapiens, UniProt P48546); test: Functional cAMP activity in the presence of 1% HSA; assay type: cell-based; details: read-out: cAMP Rel EC50, hGIPR
Sequence (P48546 22-466): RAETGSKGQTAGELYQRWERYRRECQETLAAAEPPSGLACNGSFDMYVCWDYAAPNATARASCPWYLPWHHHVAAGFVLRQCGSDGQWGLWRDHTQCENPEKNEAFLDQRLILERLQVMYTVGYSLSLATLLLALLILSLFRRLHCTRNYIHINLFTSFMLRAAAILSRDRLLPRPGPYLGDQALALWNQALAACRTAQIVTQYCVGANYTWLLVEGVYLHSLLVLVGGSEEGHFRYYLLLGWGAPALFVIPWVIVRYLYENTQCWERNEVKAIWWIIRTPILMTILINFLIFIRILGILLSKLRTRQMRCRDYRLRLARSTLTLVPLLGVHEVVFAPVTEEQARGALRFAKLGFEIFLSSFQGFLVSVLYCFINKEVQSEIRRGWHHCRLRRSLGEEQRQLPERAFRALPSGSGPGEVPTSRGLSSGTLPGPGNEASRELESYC
Starred links: 1 amine or outer side, 2 acyl side, 3 side chain; linkers in the order of their positions; H or OH if unused. Non-standard residues stand in square brackets, D forms with d. Groups on a side chain read outwards from the residue. No end group written: not given here. *: point of attachment. C18 diacid = O=C(O)CCCCCCCCCCCCCCCCC(=O)*; αMePhe(2-F) = C[C@](N)(Cc1ccccc1F)C(=O)O; γGlu = O=C(O)[C@H](CCC(=O)[*:2])N[*:1]; αMe4Pal = C[C@](N)(Cc1ccncc1)C(=O)O; αMeY = C[C@](N)(Cc1ccc(O)cc1)C(=O)O; 4Pal = N[C@@H](Cc1ccncc1)C(=O)O; αMeL = CC(C)C[C@](C)(N)C(=O)O; αMeS = C[C@](N)(CO)C(=O)O; Orn = NCCC[C@H](N)C(=O)O; AEEA = NCCOCCOCC(=O)O; Aib = CC(C)(N)C(=O)O
METRIC: pEC50
The value called pEC50 is obtained by taking minus log10 of the concentration in mol/L.

Memo: Y[Aib]QGTFTSD[4Pal]SQ[αMeL]LDKK([AEEA-γGlu-C18 diacid])AQ[αMe4Pal]AFIE[αMeY]LIEGGPSSGAPPPEGS-NH2 [Example 852] , reported pEC50: 7.34

Memo: H-Y[Aib]QGT[αMePhe(2-F)]TSD[4Pal][αMeS]I[αMeL]LD[Orn]K([γGlu-γGlu-C18 diacid])AQ[Aib][Orn]FI[dE][αMeY]LSEGGPSSGEPPPSGTEE-NH2 [Example 561] , reported pEC50: 8.00

Memo: H-Y[Aib]QGTFTSD[4Pal]SQ[αMeL]LD[Orn]K([AEEA-γGlu-C18 diacid])AQ[αMe4Pal]QFIE[αMeY]LIEGGPSSGAPPPSGSEE-NH2 [Example 1045] , reported pEC50: 6.97
